Source: patent US20240116985A1

- SUBJECT_OF_TEST: T1, Bcat-Halo (UniProt P35222 1-781)
- T1 sequence (looked up): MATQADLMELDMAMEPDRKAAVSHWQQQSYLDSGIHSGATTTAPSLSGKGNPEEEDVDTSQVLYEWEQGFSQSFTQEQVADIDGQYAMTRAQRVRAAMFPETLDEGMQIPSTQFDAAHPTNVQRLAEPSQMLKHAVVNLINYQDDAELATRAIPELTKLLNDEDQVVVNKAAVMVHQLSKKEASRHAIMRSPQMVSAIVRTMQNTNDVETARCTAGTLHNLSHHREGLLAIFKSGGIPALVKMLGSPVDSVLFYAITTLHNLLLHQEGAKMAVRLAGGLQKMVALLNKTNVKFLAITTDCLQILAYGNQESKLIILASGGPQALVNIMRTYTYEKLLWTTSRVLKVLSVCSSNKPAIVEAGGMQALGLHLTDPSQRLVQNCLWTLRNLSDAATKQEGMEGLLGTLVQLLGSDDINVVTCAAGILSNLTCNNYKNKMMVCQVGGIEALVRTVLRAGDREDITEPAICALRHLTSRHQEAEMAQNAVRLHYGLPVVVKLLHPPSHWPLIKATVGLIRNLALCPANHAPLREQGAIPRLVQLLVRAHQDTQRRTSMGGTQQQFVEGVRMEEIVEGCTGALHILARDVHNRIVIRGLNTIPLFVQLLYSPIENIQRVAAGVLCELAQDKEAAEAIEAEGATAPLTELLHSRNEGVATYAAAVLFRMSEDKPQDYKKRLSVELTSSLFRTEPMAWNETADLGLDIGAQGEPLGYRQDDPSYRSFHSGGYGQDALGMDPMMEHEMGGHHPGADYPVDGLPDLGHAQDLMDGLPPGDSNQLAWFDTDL
- TEST_DESCRIPTION: cell-based or functional assay
Starred links: 1 amine or outer side, 2 acyl side, 3 side chain; linkers in the order of their positions; H or OH if unused. Positions of bridges follow the written chain, without caps; N, C: chain ends. Non-standard residues stand in square brackets, D forms with d. Primed or numbered codes have the meaning given here. PyrS2″ = (S)-3-amino-1-((pent-4-en-1-yloxy)carbonyl)pyrrolidine-3-carboxylic acid (stapling residue), C=CCCCOC(=O)N1CC[C@@](N[*:1])(C(=O)[*:2])C1; B5(4) = 2,2-bis(4-pentenyl)glycine = 2-amino-2-(pent-4-en-1-yl)hept-6-enoic acid (stitching residue), C=CCCCC(CCCC=C)(N[*:1])C(=O)[*:2]; (EtSO2Ppz)GlnR = Glu side chain amide with 4-(ethylsulfonyl)piperazine, CCS(=O)(=O)N1CCN(C(=O)CC[C@H](N[*:1])C(=O)[*:2])CC1; (bismethoxyethylamine)GlnR″ = N5,N5-bis(2-methoxyethyl)-L-glutamine, COCCN(CCOC)C(=O)CC[C@H](N[*:1])C(=O)[*:2]; B5(3) = 2,2-bis(4-pentenyl)glycine (stitching residue), C=CCCCC(CCCC=C)(N[*:1])C(=O)[*:2]; Phe(3-COOH) = N[C@@H](Cc1cccc(C(=O)O)c1)C(=O)O; 2F3MeF = Cc1cccc(C[C@H](N[*:1])C(=O)[*:2])c1F; Bta = N[C@@H](Cc1csc2ccccc12)C(=O)O; αAllylPro = C=CC[C@@]1(C(=O)O)CCCN1; tBuAla = CC(C)(C)C[C@H](N)C(=O)O; 3Thi = N[C@@H](Cc1ccsc1)C(=O)O
# NanoBRET Abs IC50 listing for each entry below
Kindly answer with a numeric value in nM, unit omitted.

Solved cases (2 shown):
binder="Ac-[αAllylPro]D[tBuAla][B5(3)]N[Phe(3-COOH)]AAFN[PyrS2″][3Thi][Bta]Q-NH2 (staple 1-4, 4-11) [I-2335]" result_number=37000
binder="Ac-[αAllylPro]D[tBuAla][B5(4)]D[Phe(3-COOH)][(AcPpz)GlnR]AFL[PyrS2″][2F3MeF][Bta]A-NH2 (staple 1-4, 4-11) [I-2319]" result_number=1000

Documented NanoBRET Abs IC50 of Ac-[αAllylPro]D[tBuAla][B5(4)]D[Phe(3-COOH)][(EtSO2Ppz)GlnR]AFL[PyrS2″][2F3MeF][Bta]A-NH2 (staple 1-4, 4-11) [I-2321] : 1700

For reference, reported NanoBRET Abs IC50 for Ac-[αAllylPro]D[tBuAla][B5(4)]D[Phe(3-COOH)][(bismethoxyethylamine)GlnR″]AFL[PyrS2″][2F3MeF][Bta]A-NH2 (staple 1-4, 4-11) [I-2322] stands at 1800
